Quick list: IC50 per entry.
# ASSAY_SYSTEM: human LPA1 (Homo sapiens, UniProt Q92633)
# Sequence (Q92633 whole entry): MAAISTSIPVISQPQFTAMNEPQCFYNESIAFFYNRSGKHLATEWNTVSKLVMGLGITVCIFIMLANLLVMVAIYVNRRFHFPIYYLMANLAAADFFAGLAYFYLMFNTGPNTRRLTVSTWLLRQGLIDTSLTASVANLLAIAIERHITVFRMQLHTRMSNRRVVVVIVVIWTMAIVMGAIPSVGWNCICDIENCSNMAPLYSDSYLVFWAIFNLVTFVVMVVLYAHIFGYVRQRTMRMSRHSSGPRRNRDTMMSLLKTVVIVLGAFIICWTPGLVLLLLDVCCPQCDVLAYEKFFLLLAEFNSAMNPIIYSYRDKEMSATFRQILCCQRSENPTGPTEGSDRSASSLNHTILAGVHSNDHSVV
# TEST_SUMMARY: LPA1 functional antagonist assay (LPA-induced calcium flux)
# CONDITION_CONTEXT: CHO cells overexpressing human LPA1; inhibition of calcium flux induced by 10 nM LPA; read-out: hLPA1 IC50
Express the reported value numerically, then name its unit.

Please review the following examples before continuing.
[
  {
    "MOLECULE": "Cc1nc(-c2nnn(C)c2NC(=O)OCC(C)C)ccc1O[C@H]1CC[C@H](CC(=O)O)C1 (racemic)",
    "RESULT": "613 nM"
  },
  {
    "MOLECULE": "Cc1nc(-c2nnn(C)c2COC(=O)N(C)C2CCCC2)c(F)cc1O[C@H]1CC[C@H](CC(=O)O)C1 (racemic)",
    "RESULT": "210 nM"
  },
  {
    "MOLECULE": "Cc1nc(-c2nnn(C)c2CNc2noc(CC3CC3)n2)ccc1O[C@H]1CC[C@H](CC(=O)O)C1 (racemic)",
    "RESULT": "572 nM"
  }
]

Dear colleague, I am looking for the recorded IC50 of the following molecule: Cc1nc(-c2nnn(C)c2CNc2noc(CCC3CCC3)n2)ccc1O[C@H]1CC[C@H](CC(=O)O)C1 (racemic)
108 nM

----------
# ASSAY_SYSTEM: human LPA1 (Homo sapiens, UniProt Q92633)
# TEST_SUMMARY: LPA1 functional antagonist assay (LPA-induced calcium flux)
# CONDITION_CONTEXT: CHO cells overexpressing human LPA1; inhibition of calcium flux induced by 10 nM LPA; read-out: hLPA1 IC50
pIC50: −log10 of the molar value.
Lab note: anything with pIC50 at or over 7 counts as T; the rest go in F.

Below are worked cases with known answers.
[
  {
    "COMPOUND": "Cc1nc(-c2nnn(C)c2COC(=O)N(C)CC2CCC2)cnc1O[C@H]1CC[C@H](CC(=O)O)C1 (racemic) [Example 26]",
    "CLASS_LABEL": "F"
  },
  {
    "COMPOUND": "Cc1nc(-c2nnn(C)c2COC(=O)N(C)CC2CCC2)c(F)cc1O[C@H]1CC[C@H](CC(=O)O)C1 (racemic)",
    "CLASS_LABEL": "F"
  },
  {
    "COMPOUND": "CCCC1(COC(=O)NCc2c(-c3ccc(O[C@H]4CC[C@H](CC(=O)O)C4)c(C)n3)nnn2C)CCC1 (racemic)",
    "CLASS_LABEL": "F"
  }
]

For this compound, is measured pIC50 7 or higher? Cc1nc(-c2onc(C)c2COC(=O)N(C)C2CCCC2)ccc1O[C@@H]1CC[C@@H](CC(=O)O)C1 (racemic)
T

# repeat for CCCCN(C)C(=O)OCc1c(-c2ccc(O[C@@H]3CC[C@@H](CC(=O)O)C3)c(CC)n2)nnn1C (racemic)
T

# repeat for Cc1nc(-c2onc(C)c2COC(=O)N(C)C2CCCC2)ccc1O[C@H]1CCC[C@H]1CC(=O)O (racemic)
T

# repeat for Cc1noc(-c2ccc(O[C@H]3CC[C@H](C(=O)O)C3)cc2)c1COC(=O)N(C)CCC(C)C (racemic)
F

# repeat for CN(CC1CCC1)C(=O)OCc1c(-c2ccc(O[C@@H]3CC[C@@H](C(=O)O)C3)cn2)nnn1C (racemic)
F

# repeat for Cc1nc(-c2nnn(C)c2COC(=O)N(C)CC2CCC2)ccc1O[C@H]1CC[C@H](CC(=O)O)C1 (single isomer, unassigned) [Example 49]
T
